The values you see were collected from ChEMBL document CHEMBL1139569.

assay system: Bile acid receptor (Homo sapiens)
assay method text: Effective concentration against farnesoid X receptor (FXR)
Exercise: for every item that follows, state its recorded EC50.

Example compounds with recorded EC50:
CCOC(=O)/C=C/c1ccc(CN(C(=O)C2CCCCC2)c2cccc(/C=C/C(=O)OC)c2)cc1; > 1000 nM
COC(=O)/C=C/c1cccc(N(Cc2ccc(/C=C/C(=O)OC(C)(C)C)cc2OC)C(=O)C2CCCCC2)c1; > 1000 nM

Attention now turns to another entry.
Asked: Fill in the blank: the reported EC50 of COC(=O)/C=C/c1cccc(N(Cc2ccc(/C=C/C(=O)OC(C)(C)C)cc2OS(C)(=O)=O)C(=O)C2CCCCC2)c1 is ____.
Given back: > 1000 nM

* * *

assay system: Bile acid receptor (Homo sapiens)
Sequence (Q96RI1 whole entry): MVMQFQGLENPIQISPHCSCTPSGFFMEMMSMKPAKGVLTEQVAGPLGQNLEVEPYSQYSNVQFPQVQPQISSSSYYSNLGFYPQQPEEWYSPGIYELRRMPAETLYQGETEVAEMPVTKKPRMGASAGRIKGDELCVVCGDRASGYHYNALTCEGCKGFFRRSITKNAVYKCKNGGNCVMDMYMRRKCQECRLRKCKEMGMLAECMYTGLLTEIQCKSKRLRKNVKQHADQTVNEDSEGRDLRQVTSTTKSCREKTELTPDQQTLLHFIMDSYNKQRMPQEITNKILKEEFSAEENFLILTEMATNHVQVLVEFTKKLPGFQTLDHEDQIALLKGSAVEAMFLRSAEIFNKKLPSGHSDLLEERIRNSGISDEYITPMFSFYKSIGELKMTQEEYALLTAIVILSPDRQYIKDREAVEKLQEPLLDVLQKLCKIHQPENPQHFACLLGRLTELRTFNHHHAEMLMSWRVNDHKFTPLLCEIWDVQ
assay method text: Effective concentration against farnesoid X receptor (FXR)
pEC50: −log10 of the molar value.
Exercise: for every item that follows, state its recorded pEC50.

COC(=O)/C=C/c1ccc(CN(C(=O)C2CCCCC2)c2cccc(/C=C/C(=O)OC)c2)cc1; < 6.00
COC(=O)/C=C/c1cccc(N(Cc2ccc(/C=C/C(=O)OC(C)(C)C)cc2O)C(=O)C2CCCCC2)c1; < 6.00
COC(=O)/C=C/c1cccc(N(Cc2ccc(/C=C/C(=O)N(C)C)cc2)C(=O)C2CCCCC2)c1; < 6.00
COC(=O)/C=C/c1cccc(N(Cc2ccc(/C=C/c3cccc(Cl)c3)cc2)C(=O)C2CCCCC2)c1; 6.78

Attention now turns to another entry.
Asked: Fill in the blank: the reported pEC50 of CC(C)(C)OC(=O)/C=C/c1ccc(CN(C(=O)C2CCCCC2)c2cccc(/C=C/C(N)=O)c2)cc1 is ____.
Given back: < 6.00
